System: Plasmodium falciparum
experimentalProtocol: Antimalarial activity against chloroquine and cycloguanil-resistant Plasmodium falciparum FCR-3/Gambia ring stage infected in human red blood cells assessed as inhibition of [3H]-hypoxanthine incorporation incubated 24 hrs before addition of [3H]-hypoxanthine measured after 24 hrs
Format: functional, cell-based
measurementKind: pIC50
Numbers only, as −log10 of the molar value.

Example results:
>>> df
                                   molecule  experimentalvalue
0  Cl.NC1=NC(c2ccc([N+](=O)[O-])cc2)NC(NCCCOc2ccc(Cl)cc2)=N1 (configuration not stated)               5.13
1  Cl.NC1=NC(c2ccco2)NC(NCCCOc2ccc(Cl)cc2)=N1 (configuration not stated)               6.00
2   CC1(C)N=C(N)N=C(NCCCSc2ccc(Cl)cc2)N1.Cl               5.11
3  COc1ccc(C2N=C(N)N=C(NCCCOc3ccc(Cl)cc3)N2)cc1.Cl (configuration not stated)               5.18

Give me pIC50 for each of these molecules, listed below.
1. Cl.NC1=NC2(CCCCC2)NC(NCc2ccccc2)=N1
2. Cl.NC1=NC(c2ccc([N+](=O)[O-])cc2)NC(NCCc2ccc(Cl)c(Cl)c2)=N1 (configuration not stated)
3. Cl.NC1=NC(c2ccccc2)NC(NCCCOc2ccccc2Cl)=N1 (configuration not stated)
4. Cl.NC1=NC(c2ccccc2)NC(NCCCOc2ccc(Cl)cc2Cl)=N1 (configuration not stated)

A.
1. 5.00
2. 4.95
3. 5.34
4. 5.34

----------
System: Plasmodium falciparum
experimentalProtocol: Antimalarial activity against chloroquine and cycloguanil-resistant Plasmodium falciparum FCR-3/Gambia ring stage infected in human red blood cells assessed as inhibition of [3H]-hypoxanthine incorporation incubated 24 hrs before addition of [3H]-hypoxanthine measured after 24 hrs
Assay type: functional, cell-based
pIC50: −log10 of the molar value.
The threshold is inclusive: pIC50 of exactly 5 counts as satisfied; values below receive not satisfied.

# count of solved cases: 4
>>> df
                                   compound  qualitativelabel
0  Cl.NC1=NC(c2ccccc2)NC(NCCCOc2ccc(Cl)cc2)=N1 (configuration not stated)         satisfied
1  Cl.NC1=NC(c2ccccc2)NC(NCCCSc2ccc(Cl)cc2)=N1 (configuration not stated)         satisfied
2     CC1(C)N=C(N)N=C(NCCc2ccc(Cl)cc2)N1.Cl     not satisfied
3  Cl.NC1=NC(c2ccccc2)NC(NCCCOc2c(Cl)cc(Cl)cc2Cl)=N1 (configuration not stated)         satisfied

# next compound below
Q. Please check the record Cl.NC1=NC(c2ccccc2Cl)NC(NCCCOc2ccc(Cl)cc2)=N1 (configuration not stated) and state if its pIC50 is at or above 5.
A. satisfied

----------
experimentalProtocol: Toxicity at human RBC assessed as haemolysis at 50 uM
Assay type: cell-based
conditionDetails: erythrocyte
measurementKind: Activity

Here are 4 molecules together with their reported answers.
In [3]: df
Out[3]:
                                   molecule  experimentalvalue
0   CC1(C)N=C(N)N=C(NCCCOc2ccc(Cl)cc2)N1.Cl          Non-toxic
1  Cl.NC1=NC(c2ccccc2)NC(NCCCOc2ccccc2Cl)=N1 (stereo not drawn)          Non-toxic
2  COc1ccc(OCCCNC2=NC(N)=NC(c3ccccc3)N2)cc1.Cl (stereo not drawn)          Non-toxic
3  Cl.NC1=NC(c2ccccc2)NC(NCCCOc2ccc(Cl)c(Cl)c2)=N1 (stereo not drawn)          Non-toxic

Report Activity for every entry below.
1. Cl.NC1=NC(c2ccccc2Cl)NC(NCCCOc2ccc(Cl)cc2)=N1 (stereo not drawn)
2. Cl.NC1=NC(c2ccc(F)cc2)NC(NCCc2ccc(Cl)c(Cl)c2)=N1 (stereo not drawn)
3. COc1ccc(C2N=C(N)N=C(NCCCOc3ccc(Cl)cc3)N2)cc1.Cl (stereo not drawn)
4. Cl.NC1=NC(c2ccc(C(F)(F)F)cc2)NC(NCCCOc2ccc(Cl)cc2)=N1 (stereo not drawn)
5. Cl.NC1=NC(c2ccccc2)NC(NCCCCCOc2ccc(Cl)cc2)=N1 (stereo not drawn)

A.
["Non-toxic", "Non-toxic", "Non-toxic", "Non-toxic", "Non-toxic"]

// for each molecule in input: emit Activity
1. Cl.NC1=NC(c2ccccc2)NC(NCCCCOc2ccc(Cl)cc2)=N1 (stereo not drawn)
2. Cl.NC1=NC2(CCCCC2)NC(NCc2ccccc2)=N1
3. CN(C)c1ccc(C2N=C(N)N=C(NCCCOc3ccc(Cl)cc3)N2)cc1.Cl (stereo not drawn)
4. Cl.NC1=NC(c2ccc([N+](=O)[O-])cc2)NC(NCCCOc2ccc(Cl)cc2)=N1 (stereo not drawn)

A.
Non-toxic
Non-toxic
Non-toxic
Non-toxic

# per-item lookup of Activity; items listed below
1. Cl.NC1=NC(c2ccccc2)NC(NCCCOc2ccc([N+](=O)[O-])cc2)=N1 (stereo not drawn)
2. Cl.NC1=NC(c2ccccc2)NC(NCCCSc2ccc(Cl)cc2)=N1 (stereo not drawn)

A.
1. Non-toxic
2. Non-toxic
